Biological target: Human FXIIa (Homo sapiens (Human))
Experiment: Factor XIIa (FXIIa) inhibitory activity, chromogenic substrate (Pefachrome XIIa) cleavage
Assay type: biochemical
Settings: 10 min pre-incubation, Pefachrome XIIa 400 μM
Experimental readout: log10 of IC50 (log10 of the value in µM)
# log10 transformed; quantity=IC50; unit=µM

Below are worked cases with known answers.
{"Compound": "CS(=O)(=O)N1CCc2c(nn(C(=O)C3CCNc4c(F)cccc43)c2N)C1 (centres unmarked)", "log10 of IC50": -1.00}
{"Compound": "CS(=O)(=O)N1CCc2c(nn(C(=O)C3CCNc4ccc(C(F)(F)F)cc43)c2N)C1 (centres unmarked)", "log10 of IC50": -1.00}
{"Compound": "COc1cccc2c1NCCC2C(=O)n1nc2c(c1N)CCN(S(C)(=O)=O)C2 (single isomer, unassigned) [Example 63]", "log10 of IC50": -0.85}

Asked: Dear colleague, please send me the reported log10 of IC50 for CC(=O)Nc1ccc2c(c1)C(C(=O)n1nc3c(c1N)CCN(S(C)(=O)=O)C3)CCN2 (centres unmarked) when you can.
Given back: 0.93

* * *

Each entry below carries its measured pIC50, system: Human FXIIa (Homo sapiens (Human), UniProt P00748).
Sequence (P00748 373-615): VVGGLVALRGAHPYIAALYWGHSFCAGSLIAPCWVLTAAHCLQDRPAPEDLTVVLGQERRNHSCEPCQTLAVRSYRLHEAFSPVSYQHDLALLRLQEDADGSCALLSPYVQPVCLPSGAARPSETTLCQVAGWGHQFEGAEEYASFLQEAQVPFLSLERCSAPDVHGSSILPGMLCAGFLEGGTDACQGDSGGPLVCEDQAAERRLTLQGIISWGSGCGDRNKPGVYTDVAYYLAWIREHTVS
Sequence (P00748 20-372 partner): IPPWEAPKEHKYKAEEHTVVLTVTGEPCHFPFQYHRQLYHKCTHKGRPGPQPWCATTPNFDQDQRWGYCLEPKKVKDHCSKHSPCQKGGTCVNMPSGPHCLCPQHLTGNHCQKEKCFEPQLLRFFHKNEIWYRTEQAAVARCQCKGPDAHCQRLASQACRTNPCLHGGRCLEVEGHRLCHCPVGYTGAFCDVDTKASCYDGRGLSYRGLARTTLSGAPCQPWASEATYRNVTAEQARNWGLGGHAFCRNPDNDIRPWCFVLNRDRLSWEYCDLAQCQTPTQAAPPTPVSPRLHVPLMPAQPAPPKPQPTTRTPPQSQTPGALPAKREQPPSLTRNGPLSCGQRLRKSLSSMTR
pIC50: −log10 of the molar value.

{"Compound": "CCCN1CCc2c(N)nn(C(=O)C3CCNc4ccc(F)cc43)c2C1 (stereo not shown)", "pIC50": "< 4.15"}
{"Compound": "COc1ccc2c(c1)C(C(=O)n1nc(N)c3c1CN(S(C)(=O)=O)CC3)CCN2 (stereo not shown)", "pIC50": "< 4.22"}
{"Compound": "CCc1cc(C)c2c(c1)C(C(=O)n1nc(N)c3c1CN(S(C)(=O)=O)CC3)CCN2 (stereo not shown)", "pIC50": "< 4.19"}

Asked: # return pIC50 for Cc1ccc2c(c1)C(C(=O)n1nc(N)c3c1CN(S(C)(=O)=O)CC3)CCN2 (stereo not shown) , test system: Human FXIIa (Homo sapiens (Human), UniProt P00748)
Given back: < 4.05

* * *

The following compounds each carry a recorded pIC50 for Human FXIIa (Homo sapiens (Human), UniProt P00748).
// field semantics: pIC50 = negative decimal log of concentration (mol/L)

Guide cases for pIC50, answers given:
{"Compound": "Nc1nn(C(=O)C2CCNc3ccccc32)c2c1CCN(S(=O)(=O)c1ccccc1)C2 (stereo not shown) [Example 106]", "pIC50": 4.30}
{"Compound": "Cc1cc(F)cc2c1NCCC2C(=O)n1nc2c(c1N)CCN(S(C)(=O)=O)C2 (single isomer, unassigned) [Example 53]", "pIC50": 8.00}
{"Compound": "Cc1cc(F)cc2c1NCCC2C(=O)n1nc2c(c1N)CCOC2 (single isomer, unassigned) [Example 76]", "pIC50": 7.30}

Asked: Return reported pIC50 for target or system Human FXIIa (Homo sapiens (Human), UniProt P00748), item CS(=O)(=O)N1CCc2c(nn(C(=O)[C@H]3CCCc4[nH]c(Cl)cc43)c2N)C1 (single isomer, unassigned) [Example 131] .
Given back: 7.52

* * *

Reported IC50 by item:
Target: Human FXIIa (Homo sapiens (Human), UniProt P00748)
Give your result in µM as a bare value.

{"Compound": "CCc1cc(C)c2c(c1)C(C(=O)n1nc3c(c1N)CCN(S(C)(=O)=O)C3)CCN2 (stereo not shown) [Example 55]", "Assayed target": "Human FXIIa (Homo sapiens (Human), UniProt P00748)", "Unit label": "µM", "Assay value": 0.04}

Asked: Output reported IC50 of the compound CCN1CCc2c(N)nn(C(=O)C3CCNc4ccc(Cl)cc43)c2C1 (stereo not shown) on Human FXIIa (Homo sapiens (Human), UniProt P00748).
Given back: 21

Asked: Quote IC50 with test system Human FXIIa (Homo sapiens (Human), UniProt P00748) for Cc1cc(F)cc2c1NCCC2C(=O)n1nc2c(c1N)CCOC2 (single isomer, unassigned) [Example 77]
Given back: 70

Asked: Please report the measured IC50 for Cn1cc2c(c1)C(C(=O)n1nc(N)c3c1CN(S(C)(=O)=O)CC3)CCC2 (stereo not shown) tested on Human FXIIa (Homo sapiens (Human), UniProt P00748).
Given back: 75
